Experiment: yeast display, Sf9 membrane polyspecificity reagent, FACS + sequencing; frameworks hold sequencing errors
QUANTITY: polyreactivity (PSR sort gate)

[[record]]
chain_sequence = "QVQLVESGGGLVQAGGSLRLSCAASGRNFRYYAMGWYRQAPGKERELVAAITTGSSTYYADSVKGRFTISRDNAKNTVYLQMNSLKPEDTAVYYCNVFQGTRYGYWGQGTQVTVSS"
result = "low polyreactivity"

[[record]]
chain_sequence = "QVQLVESGGGLVQAGGSLRLSCAASGGIVRSNAMGWYRQAPGKERELVAAINRSVRTYYADSVKGRFTISRDNEKNTVYLQMNSLKPEDTAVYYCAAQQGVISRGNYWGQGTQVTVSA"
result = "low polyreactivity"

[[record]]
chain_sequence = "QVQLVESGGGLVQPGGSLRLSCAASGSIFAWYVMGWYRQAPGKERELVAGIDTSGGTTFYADSVKGRFTISRDNAKNTVYVQMNSLKPEDTAVYYCAADTWYRGPWEFDYWGQGTQVTVSS"
result = "low polyreactivity"

[[record]]
chain_sequence = "QVQLVESGGGLVQAGGSLRLSCAASGSIFGWNAMGWYRQAPGKERELVAAITRRGDSTYYADSVKGRFTISRDNAKNTVYLQMNSLKPEDTAVYYCAKRGTGVYRVDYGYWGQGTQVTVSS"
result = "high polyreactivity"

[[record]]
chain_sequence = "QVQLVESGGGLVQAGGSLRLSCAASGGIFRVYAMGWYRQAPGKERELVAAISRSGSSTYYADSVKGRFTISRDNAKNTVYLQMNSLKPEDTAVYYCNAYSQYWLGNNYWGQGSQVTVSS"
result = "high polyreactivity"

[[record]]
chain_sequence = "QVQLVESGGGLVQAGGSLRLSCAASGFTFQNYVMGWYRQAPGKERELVAAINSGGRTYYADSVKGRFTISRDNAKNTVYLQMNSLKPEDTAVYYCNAVQPATYKYRSHVIEYDYWGQGSQVTVSS"
result = "high polyreactivity"

[[record]]
chain_sequence = "QVQLVESGGGLVQAGGSLRLSCAASGRIFPTYTMGWYRQAPGKERELVAGISYSGTSTSYADSVKGRFTISRDNAKNTVYLQMNSLKPEDTAVYYCAAKYYGRSFYYGYDYWGQGTQVTVSS"
result = "low polyreactivity"

[[record]]
chain_sequence = "QVQLVESGGGLVQAGGSLRLSCAASGSILDSNAMGWYRPAPGKERELVAAITSGGSTYYADSVKGRFTISRDNAKNTVYLQMNSLKPEDTAVYYCAAAYLGYGAVQPSYEGGYWGQGTQVTVSS"
result = "low polyreactivity"


====

Test: yeast display, Sf9 membrane polyspecificity reagent, FACS + sequencing; frameworks hold sequencing errors
QUANTITY: polyreactivity (PSR sort gate)

[[record]]
chain_sequence = "QVQLVESGGGLVQAGGSLRLSCAASGITLSNYAMGWYRQAPVKEREFVAALTRSGDSTYYADSVKGRFTISRDNAQNTVYLQMNSLKPEDTAVYYCPAEEHRYTEVYPTSTTDEYDYRGQGTQVTVSS"
result = "low polyreactivity"

[[record]]
chain_sequence = "QVQLVESGGGLVQAGGRLRLSCAASGRTFKDYAMGWYRQAPGKERELVAGINGSGGSTYYADSVKGRFTISRDNAKNTVYLQMNSLKPEDTAVYYCNADFGYWWDGRRYDYWGQGTQVTVSS"
result = "low polyreactivity"

[[record]]
chain_sequence = "HLQLVESGGVLVQAGGSLRLSCASSGSTFRSNVMGWYRQAPGKAREFVAAITSSSATTYYADSVKGRFTISRDNAKNTVYLLINSLKPEDTAVYYCAAGGRKAGPAGGQYYYWGQGTQVTVSS"
result = "low polyreactivity"

[[record]]
chain_sequence = "QVQLQVSGGGLVQAGGSLRLSCEASGSIFLTSEMGWYRQAPGIERELVAAIATGTSTNYADSVKGRFTISRDNAKNTVYLQMNSLKPEDTAVYYCATYHYWGQGTQVTVSS"
result = "low polyreactivity"

[[record]]
chain_sequence = "QVQLVESGGGLVQAGGSLSLSCAASGFIFDYYTMGWYRQAPGKEREFVAAINRRGDITYYADSVKGRFTISRDNAKNTVYLQMNSLKPEDTAVYSCAATLTWSSRYEYGYWGQGTQVTVSS"
result = "low polyreactivity"

